The following molecules are listed with their measured ΔTm values.
Biological target: Aurora kinase A (Homo sapiens)
Sequence (whole entry): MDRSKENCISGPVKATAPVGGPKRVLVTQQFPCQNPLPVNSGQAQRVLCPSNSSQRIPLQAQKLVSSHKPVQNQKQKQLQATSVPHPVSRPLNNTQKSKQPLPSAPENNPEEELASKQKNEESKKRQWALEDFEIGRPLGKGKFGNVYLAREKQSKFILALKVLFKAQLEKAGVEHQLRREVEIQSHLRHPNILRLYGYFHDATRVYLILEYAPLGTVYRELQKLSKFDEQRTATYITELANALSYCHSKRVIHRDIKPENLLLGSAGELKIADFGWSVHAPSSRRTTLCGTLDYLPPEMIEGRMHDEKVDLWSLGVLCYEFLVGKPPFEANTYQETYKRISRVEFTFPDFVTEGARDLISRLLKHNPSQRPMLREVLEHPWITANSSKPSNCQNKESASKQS
Details: Compound concentration 20.0 uM
Description: Thermal Shift Assay. Domain: start/stop: E122-S403
ATTRIBUTE MEASURED: ΔTm (°C)

MOLECULE	ATTRIBUTE MEASURED	RECORDED NUMBER
CCCCCCCCCCCCCC(=S)NCCCC[C@H](NC(=O)OCc1ccccc1)C(=O)Nc1ccccc1	ΔTm	-2.19
O=C(NCC(=O)N1CCCCC1)Nc1ccc2nnsc2c1	ΔTm	-0.71
Cc1sc(C(=O)c2cncnc2N[C@@H]2C[C@H](COS(N)(=O)=O)[C@@H](O)C2)cc1[C@@H]1NCCc2ccc(Cl)cc21	ΔTm	-1.12
CC(C)(C)OC(=O)Nc1ccc(CNc2nccc(Nc3cc(C(=O)OC(C)(C)C)[nH]n3)n2)cc1	ΔTm	26.1
Cc1ccsc1C(=CCCN1CCC[C@@H](C(=O)O)C1)c1sccc1C	ΔTm	-1.21
CC/C(=C(/c1ccc(/C=C/C(=O)O)cc1)c1ccc2[nH]ncc2c1)c1ccc(F)cc1Cl	ΔTm	1.69
N=C(N)N/N=C/c1cccc(Cl)c1Cl	ΔTm	-0.81
Cc1cc(OCc2nnc(SC3CCCC3)n2-c2cccnc2)ccc1-c1ccc(S(C)(=O)=O)cc1	ΔTm	-1.26
Cc1cnc(-c2ccccc2C(C)C)nc1NCc1ccc(-n2ccnn2)cc1	ΔTm	-2.6
CCCc1nc(C)c2c(=O)nc(-c3cc(S(=O)(=O)N4CCN(CC)CC4)ccc3OCC)[nH]n12	ΔTm	-2.18
NC(=O)C(CCCN=C(N)CCl)NC(=O)c1ccccc1 (centres undefined)	ΔTm	-2.39
CNC(=O)c1cc(Nc2ccnc(Nc3ccc(CCNC(=O)OC(C)(C)C)cc3)n2)n[nH]1	ΔTm	-0.62
COc1cc2c(NCC3CCN(C)CC3)cc(-c3ccc(C)o3)nc2cc1OCCCN1CCCC1	ΔTm	0.46
O=C(c1cc(Cc2n[nH]c(=O)c3ccccc23)ccc1F)N1CCn2nc(C(F)(F)F)nc2C1	ΔTm	-2.34
O=C(C[C@@H](C(F)F)n1ccc(F)n1)N1CCC(O)(Cn2cnc3c(cnn3-c3ccc(F)cc3)c2=O)CC1	ΔTm	-2.33
CN(CC[C@@H](Oc1ccc(-c2ccccc2)cc1)c1ccc(F)cc1)CC(=O)O	ΔTm	-1.2
CCOc1ccc(Cc2cc([C@@H]3O[C@H](CO)[C@@H](O)[C@H](O)[C@H]3O)ccc2Cl)cc1	ΔTm	-2.13
Cc1cccc(Nc2ccncc2S(=O)(=O)NC(=O)NC(C)C)c1	ΔTm	-2.33
COC(=O)C1=C(C(=O)OC)[C@@]2([C@@H](Cc3ccc(C)cc3)Nc3ccccc3)C=C[C@@H]1O2	ΔTm	-2.34
